Assay: In vivo rat pharmacokinetics, oral administration
Settings: plasma, PO 1.0 mg/kg, male Lewis rats, mean
experimental readout: half-life (h)

P: Cc1cc(CNC(=O)c2cc(C(=O)NCc3ccc(C(=O)O)cc3)ncn2)ccc1F
Q: [2H]C([2H])(NC(=O)c1cc(C(=O)NCc2ccc(F)c(C)c2)ncn1)c1ccc(C(=O)O)cc1
I would appreciate it if you could say which entry, P or Q , has the lower half-life value. Please reply using the label of the selected record.
Q
(Q: 1.22 h, P: 1.84 h)

====

Assay: In vivo rat pharmacokinetics, oral administration
Details: plasma, PO 1.0 mg/kg, male Lewis rats, mean
experimental readout: AUC(0-inf) (ng·h/mL)

a: [2H]C([2H])(NC(=O)c1cc(C(=O)NCc2ccc(F)c(C)c2)ncn1)c1ccc(C(=O)O)cc1
b: Cc1cc(CNC(=O)c2cc(C(=O)NCc3ccc(C(=O)O)cc3)ncn2)ccc1F
Task for the reader: decide whether a or b has the larger AUC(0-inf). Please reply using the label of the selected record.
a

====

Test: In-vitro rat microsomal stability
Type: in vitro ADME
Details: rat microsomes, compound 1 microMoles, at T = 60 minutes
experimental readout: % Mean Remaining Parent with NADPH (%)

>  <compound>
COc1cccc(CNC(=O)c2cc(C(=O)NCc3ccc(-c4nnn[nH]4)cc3)ncn2)c1 [drawing 274]

>  <value unit>
%

>  <test value>
52.8

$$$$
>  <compound>
[2H]C([2H])(NC(=O)c1cc(C(=O)NCc2ccc(C(=O)O)cc2)ncn1)c1ccc(F)c(C)c1 [drawing 272]

>  <value unit>
%

>  <test value>
87.4

$$$$
>  <compound>
[2H]C([2H])(NC(=O)c1cc(C(=O)NCc2ccc(F)c(C)c2)ncn1)c1ccc(C(=O)O)cc1 [drawing 273]

>  <value unit>
%

>  <test value>
98.5

$$$$

P: Cc1cc(CNC(=O)c2cc(C(=O)NCc3ccc(C(=O)O)cc3)ncn2)ccc1F [drawing 271]
Q: [2H]C([2H])(NC(=O)c1cc(C(=O)NC([2H])([2H])c2ccc(F)c(C)c2)ncn1)c1ccc(F)c(C)c1 [drawing 277]
R: [2H]C([2H])(NC(=O)c1cc(C(=O)NCc2ccc(-c3nn[nH]n3)cc2)ncn1)c1cccc(OC)c1 [drawing 275]
S: Cc1cc(CNC(=O)c2cc(C(=O)NCc3ccc(F)c(C)c3)ncn2)ccc1F [drawing 276]
Please put the entries in order of rising % Mean Remaining Parent with NADPH (%). List labels; respect the requested ordering.
S, Q, R, P
(S: 0.6%, Q: 1.7%, R: 57.4%, P: 90.7%)

Where do the numbers come from? From patent US9505743B2.
